Target: human 5-HT1A receptor (Homo sapiens)
Construct: expressed in transfected cells
Sequence (P08908 whole entry): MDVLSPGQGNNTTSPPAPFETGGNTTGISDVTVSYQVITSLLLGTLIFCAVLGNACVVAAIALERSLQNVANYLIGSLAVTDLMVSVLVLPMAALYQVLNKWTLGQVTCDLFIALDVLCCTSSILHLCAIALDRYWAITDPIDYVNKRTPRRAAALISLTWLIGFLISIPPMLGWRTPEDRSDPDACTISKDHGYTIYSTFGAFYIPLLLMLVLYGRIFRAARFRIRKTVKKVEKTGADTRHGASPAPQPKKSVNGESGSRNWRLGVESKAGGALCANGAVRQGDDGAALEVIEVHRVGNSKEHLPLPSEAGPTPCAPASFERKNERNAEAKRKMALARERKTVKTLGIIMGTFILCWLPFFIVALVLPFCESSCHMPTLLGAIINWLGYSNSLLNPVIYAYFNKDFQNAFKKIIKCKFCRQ
Assay: GPCR radioligand binding assay, [3H]-8-OH-DPAT displacement, HEK293 membranes
Settings: 5-HT1A; replicate exp_2
RESULT TYPE: %inh 5-HT1A exp_2 (%)

> print(dat)
                  mol.smiles                        assayed.system  result.unit  recorded.result
1   c1ccc2c(N3CCNCC3)ccnc2c1  human 5-HT1A receptor (Homo sapiens)            %               83
2     O=C(CN1CCNCC1)c1ccccc1  human 5-HT1A receptor (Homo sapiens)            %                3
3  O=C(O)c1ccc(CN2CCOCC2)cc1  human 5-HT1A receptor (Homo sapiens)            %            -0.56
4         COc1ccccc1N1CCNCC1  human 5-HT1A receptor (Homo sapiens)            %              103
5      COc1ccc(C2=CCNCC2)cc1  human 5-HT1A receptor (Homo sapiens)            %               20
6             CN1CC(=O)NC1=O  human 5-HT1A receptor (Homo sapiens)            %              -13

###

Target: human 5-HT6 receptor (Homo sapiens, UniProt P50406)
Construct: expressed in transfected cells
Sequence (P50406 whole entry): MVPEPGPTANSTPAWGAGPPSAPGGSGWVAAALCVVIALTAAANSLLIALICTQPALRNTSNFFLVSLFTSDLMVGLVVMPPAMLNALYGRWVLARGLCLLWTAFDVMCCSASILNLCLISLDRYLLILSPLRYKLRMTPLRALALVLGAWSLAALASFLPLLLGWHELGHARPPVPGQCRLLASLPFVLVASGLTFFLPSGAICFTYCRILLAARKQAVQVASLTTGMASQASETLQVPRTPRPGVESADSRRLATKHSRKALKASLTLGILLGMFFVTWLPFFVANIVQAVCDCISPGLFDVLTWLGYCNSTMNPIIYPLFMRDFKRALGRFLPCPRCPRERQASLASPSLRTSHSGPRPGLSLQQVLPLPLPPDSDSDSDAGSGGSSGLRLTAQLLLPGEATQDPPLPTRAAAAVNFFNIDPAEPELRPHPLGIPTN
Experiment: GPCR radioligand binding assay, [3H]-LSD displacement, HEK293 membranes
Details: 5-HT6; average, values below 0 and above 100% were set as 0 and 100
Known %inh 5-HT6 corrected* of a selection of compounds
RESULT TYPE: %inh 5-HT6 corrected* (%)

> print(dat)
                                    compound  recorded.result
 1  N#CC1CCS(=O)(=O)C1 (stereo not drawn) [F2]               22
 2  Fc1ccc(CC2CCCNC2)cc1 (stereo not drawn) [C1]               42
 3                      CCn1cnc2ccccc21 [D4]               23
 4                 Brc1ccc(-c2ccon2)cc1 [A9]               34
 5                   FC1(F)CNCC(F)(F)O1 [H3]               36
 6          Fc1ccc2c(C3CCNCC3)c[nH]c2c1 [H4]               90
 7                    Nc1ccc(SC(F)F)cc1 [D1]               45
 8  O=C(O)CC1CCC(=O)N1 (stereo not drawn) [H2]               16
 9              Cc1ccc(-c2ccc(O)cc2)cc1 [D7]               45
10  O=C(O)C1CCCN(C(=O)N2CCCC2)C1 (stereo not drawn) [G6]               27
11               O=C(CN1CCNCC1)c1ccccc1 [E5]               49
12                 NC(c1ccccc1)c1ccccc1 [C3]               25
13                      CN1CC(=O)NC1=O [B10]               35
14            O=C(c1ccccc1)N1CCC(CO)CC1 [H9]               32
15    NC1CCc2ccccc21 (stereo not drawn) [B4]               16
16                  COc1ccccc1C1CCNCC1 [A11]               71
17                  Cn1nc(C(F)(F)F)cc1O [H6]                0
18  O=C1NC(=O)C2(CCc3ccccc32)N1 (stereo not drawn) [B7]               32
19             O=C1CCC(=O)N(c2ccccc2)N1 [H7]               22
20                  COc1ccccc1N1CCNCC1 [A10]               69
21                     c1cnc2c(c1)NCCC2 [E7]               28
22                CCCN1C(=O)CC(=O)NC1=S [D5]               49
23            O=C(O)c1cccc(Nc2ncccn2)c1 [F5]               50
24                 O=C1CCN(c2ccccn2)CC1 [G8]                7
25  CC(CN)N1CCc2sccc2C1 (stereo not drawn) [F9]               15
26           Nc1ccc(-c2ccccc2)cc1C(=O)O [G9]               37
27                         Cc1cc(N)no1 [B11]               37
28                    CN(C)c1cc(CN)ccn1 [G3]               16
29        CS(=O)(=O)c1ccc(OC(F)(F)F)cc1 [B8]                4
30             O=C(CN1CCCC1)c1ccccc1Cl [G10]               19

###

Known V0 / Vi of a selection of compounds
Target: bovine factor Xa (Bos taurus, UniProt P00743)
Construct: bovine factor Xa, Chromogenix, 2 nkat/mL; purchased Chromogenix
Sequence (P00743 234-492 limits assumed): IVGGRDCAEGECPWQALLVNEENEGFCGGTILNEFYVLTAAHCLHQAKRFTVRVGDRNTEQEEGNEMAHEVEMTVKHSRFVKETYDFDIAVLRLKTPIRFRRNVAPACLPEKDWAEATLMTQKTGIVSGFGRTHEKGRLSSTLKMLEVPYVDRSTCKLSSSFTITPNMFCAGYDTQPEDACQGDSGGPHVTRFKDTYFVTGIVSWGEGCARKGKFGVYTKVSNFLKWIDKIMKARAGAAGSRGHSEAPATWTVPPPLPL
Sequence (P00743 41-180 partner limits assumed): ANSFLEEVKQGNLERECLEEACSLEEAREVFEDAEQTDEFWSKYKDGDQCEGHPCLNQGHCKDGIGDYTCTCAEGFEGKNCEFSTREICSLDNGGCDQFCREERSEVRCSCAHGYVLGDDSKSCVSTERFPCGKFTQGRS
Experiment: Protease inhibitory assay, chromogenic substrate S-2222
Assay type: biochemical
Settings: FactorXa primary screening; substrate 100 µM; cmpd conc 200 µM
RESULT TYPE: V0 / Vi

> print(dat)
                                    compound  result.type  recorded.result
 1                        CCN(CC)c1cccc(C)c1      V0 / Vi             0.95
 2                          c1ccc2[nH]ccc2c1      V0 / Vi             1.05
 3                        N#CCCN1CCc2ccccc21      V0 / Vi             1.01
 4                           Clc1ccc2nnnn2n1      V0 / Vi             1.12
 5                  N[C@H]1c2ccccc2C[C@H]1CO      V0 / Vi             0.91
 6                 O=C(O)c1ccc(CN2CCOCC2)cc1      V0 / Vi             0.98
 7            COC(=O)c1c(C)nc(C2CC2)[nH]c1=O      V0 / Vi             0.96
 8                    CC(=O)c1ccc2c(c1)CNCC2      V0 / Vi             0.98
 9                      O=C1CCN(c2ccccn2)CC1      V0 / Vi             0.97
10                  O=C(O)C1CCN(c2ncccn2)CC1      V0 / Vi             1.08
11                    O=C(c1ccccc1F)N1CCNCC1      V0 / Vi             1.28
12  CC1C(=O)NC(=O)N1c1ccc(Cl)cc1 (stereo not shown)      V0 / Vi             1.01
13                           CCn1cnc2ccccc21      V0 / Vi             1.03
14                  O=c1[nH]ncc2c1oc1ccccc12      V0 / Vi             1.00
15                       O=c1[nH]c2c(s1)CCC2      V0 / Vi             1.04
16      CC(=O)c1sc(-c2ccc(O)cc2)nc1C [SX-E1]      V0 / Vi             1.17
17                  O=C1CSC(Nc2ccc(F)cc2)=N1      V0 / Vi             1.14
18               CS(=O)(=O)Nc1ccc(C(=O)O)cc1      V0 / Vi             1.01
19                      O=C(NC1CC1)c1ccccc1O      V0 / Vi             0.96
20               Fc1ccc2c(C3CCNCC3)c[nH]c2c1      V0 / Vi             0.92
21  O=C(O)C1CCCN(C(=O)N2CCCC2)C1 (stereo not shown)      V0 / Vi             1.09
22                          CCc1nccn1CC(=O)O      V0 / Vi             1.08
23                  c1ccc2c(N3CCNCC3)ccnc2c1      V0 / Vi             1.03
24                         Cn1c(N)nc2ccccc21      V0 / Vi             1.45
25     O=C(O)CC1CCC(=O)N1 (stereo not shown)      V0 / Vi             1.01
26                     Nc1nnc(-c2cccs2)[nH]1      V0 / Vi             1.09
27                       Oc1ccc(-n2cncn2)cc1      V0 / Vi             1.05
28                   Cc1ccc(-c2ccc(O)cc2)cc1      V0 / Vi             1.15
